# Assay target: CYP2C9 (Homo sapiens, UniProt P11712)
# Construct: from tissue; host or cells: human liver microsomes
# Sequence (P11712 whole entry): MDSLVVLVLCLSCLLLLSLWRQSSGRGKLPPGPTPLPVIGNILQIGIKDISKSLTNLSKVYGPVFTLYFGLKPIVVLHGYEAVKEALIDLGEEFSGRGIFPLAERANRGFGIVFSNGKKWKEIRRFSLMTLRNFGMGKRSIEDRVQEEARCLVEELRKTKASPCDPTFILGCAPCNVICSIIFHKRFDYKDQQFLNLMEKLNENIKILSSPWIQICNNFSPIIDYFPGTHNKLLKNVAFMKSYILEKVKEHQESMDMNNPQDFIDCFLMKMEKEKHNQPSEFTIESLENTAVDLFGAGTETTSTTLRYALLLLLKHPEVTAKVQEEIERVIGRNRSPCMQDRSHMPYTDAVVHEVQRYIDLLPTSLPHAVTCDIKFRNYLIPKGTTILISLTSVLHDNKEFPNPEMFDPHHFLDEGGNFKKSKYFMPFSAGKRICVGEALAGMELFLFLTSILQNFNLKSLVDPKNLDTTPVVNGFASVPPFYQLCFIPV
# Assay text: CYP inhibition assay, human liver microsomes, substrate diclofenac
# Assay type: in vitro ADME
# Condition label: human liver microsomes, 10 min incubation, LC-MS/MS; read-out: CYP Inhibition Activity (IC50/nM) CYP2C9
Reported endpoint: IC50 (nM)

Solved entries:
- Compound: "O=C(Nc1cc(C(F)(F)F)ccc1N1CCC(O)C1)c1ccc(-c2ccncc2)o1 (racemic) [Example 56]"
  Assay target: "CYP2C9 (Homo sapiens, UniProt P11712)"
  IC50 [nM]: 140
- Compound: "CC1(O)CCN(c2ccc(OC(F)(F)F)cc2NC(=O)c2ccc(C3CCOCC3)o2)CC1 [Example 16]"
  Assay target: "CYP2C9 (Homo sapiens, UniProt P11712)"
  IC50 [nM]: 5690
- Compound: "C[C@@]1(O)CCN(c2ccc(C(F)(F)F)cc2NC(=O)c2ccc(C3CCOCC3)o2)C1 [Example 50]"
  Assay target: "CYP2C9 (Homo sapiens, UniProt P11712)"
  IC50 [nM]: 9000
- Compound: "CN(C)C(=O)C1(C)CCN(c2ccc(C(F)(F)F)cc2NC(=O)c2ccc(-c3ccncc3)o2)CC1 [Example 74]"
  Assay target: "CYP2C9 (Homo sapiens, UniProt P11712)"
  IC50 [nM]: 1130
- Compound: "O=C(Nc1cc(Cl)ccc1N1CCCC(O)CC1)c1ccc(-c2ccncc2)o1 (racemic) [Example 45]"
  Assay target: "CYP2C9 (Homo sapiens, UniProt P11712)"
  IC50 [nM]: 410

a = CC1(C(=O)N2CCCC2)CCN(c2ccc(C(F)(F)F)cc2NC(=O)c2ccc(C3CCOCC3)o2)CC1 [Example 88]
b = CC1(C(=O)O)CCN(c2ccc(C(F)(F)F)cc2NC(=O)c2ccc(-c3ccncc3)o2)CC1 [Example 26]
c = CN(C)C(=O)C1(C)CCN(c2ccc(Cl)cc2NC(=O)c2ccc(C3CCOCC3)o2)CC1 [Example 84]
*Q* I would appreciate it if you could sort these 3 compounds by IC50, starting from the smallest number. Submit the labels in the order that the ranking request calls for.
*A* a, c, b
(a: 300 nM, c: 600 nM, b: 2150 nM)

* * *

# Assay target: CYP3A4 (Homo sapiens)
# Construct: from tissue; host or cells: human liver microsomes
# Assay text: CYP inhibition assay, human liver microsomes, substrate midazolam
# Format: in vitro ADME
# Condition label: human liver microsomes, 10 min incubation, LC-MS/MS; read-out: CYP Inhibition Activity (IC50/nM) CYP3A4
Reported endpoint: IC50 (nM)

- Compound: "CC1(O)CCCN(c2ccc(C(F)(F)F)cc2NC(=O)c2ccc(-c3ccncc3)o2)CC1 (racemic)"
  Reported endpoint: "IC50"
  Units text: "nM"
  Result: 960
- Compound: "O=C(Nc1cc(C(F)(F)F)ccc1N1CCCC(O)CC1)c1ccc(-c2ccncc2)o1 (racemic)"
  Reported endpoint: "IC50"
  Units text: "nM"
  Result: 26300
- Compound: "CC1(C(=O)N2CCCC2)CCN(c2ccc(C(F)(F)F)cc2NC(=O)c2ccc(C3CCOCC3)o2)CC1"
  Reported endpoint: "IC50"
  Units text: "nM"
  Result: 1000
- Compound: "CC1(C(=O)N2CCOCC2)CCN(c2ccc(C(F)(F)F)cc2NC(=O)c2ccc(C3CCOCC3)o2)CC1"
  Reported endpoint: "IC50"
  Units text: "nM"
  Result: 2800
- Compound: "CN1CCC2(CCN(c3ccc(C(F)(F)F)cc3NC(=O)c3ccc(C4CCOCC4)o3)CC2)C1"
  Reported endpoint: "IC50"
  Units text: "nM"
  Result: 18000
- Compound: "Cc1ccc(N2CCC(C)(O)CC2)c(NC(=O)c2ccc(-c3ccncc3)o2)c1"
  Reported endpoint: "IC50"
  Units text: "nM"
  Result: 1700

1 = CC1(CN2CCOCC2)CCN(c2ccc(C(F)(F)F)cc2NC(=O)c2ccc(C3CCOCC3)o2)CC1
2 = O=C(Nc1cc(C(F)(F)F)ccc1N1CCN(Cc2cc[nH]n2)CC1)c1ccc(C2CCOCC2)o1 [Reference Example 3, reference compound]
3 = CC1(O)CCN(c2ccc(C3CC3)cc2NC(=O)c2ccc(-c3ccncc3)o2)CC1
4 = COc1ccc(N2CCC(C)(O)CC2)c(NC(=O)c2ccc(-c3ccncc3)o2)c1
5 = CC1(O)CCCN(c2ccc(C3CC3)cc2NC(=O)c2ccc(-c3ccncc3)o2)CC1 (racemic)
*Q* Please rank these compounds by IC50 in descending order. Provide the labels, sequenced as the question asks.
*A* 5, 1, 2, 3, 4

* * *

# Assay target: CYP3A4 (Homo sapiens, UniProt P08684)
# Construct: from tissue; host or cells: human liver microsomes
# Sequence (P08684 whole entry): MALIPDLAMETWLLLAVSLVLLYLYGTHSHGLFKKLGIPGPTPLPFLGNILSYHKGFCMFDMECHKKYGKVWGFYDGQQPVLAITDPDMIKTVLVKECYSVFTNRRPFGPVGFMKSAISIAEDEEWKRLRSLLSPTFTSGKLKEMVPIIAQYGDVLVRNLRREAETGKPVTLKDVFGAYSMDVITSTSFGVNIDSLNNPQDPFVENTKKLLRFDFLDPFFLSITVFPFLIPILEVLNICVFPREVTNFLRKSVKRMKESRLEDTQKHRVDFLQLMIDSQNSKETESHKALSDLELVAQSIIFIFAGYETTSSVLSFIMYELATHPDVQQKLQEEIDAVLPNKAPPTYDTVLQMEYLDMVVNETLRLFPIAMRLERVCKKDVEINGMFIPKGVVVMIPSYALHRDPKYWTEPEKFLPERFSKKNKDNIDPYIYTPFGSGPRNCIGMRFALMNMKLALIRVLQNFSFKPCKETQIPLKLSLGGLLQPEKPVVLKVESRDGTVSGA
# Assay text: CYP inhibition assay, human liver microsomes, substrate midazolam
# Type: in vitro ADME
# Condition label: human liver microsomes, 10 min incubation, LC-MS/MS; read-out: CYP Inhibition Activity (IC50/nM) CYP3A4
Reported endpoint: IC50 (nM)

The examples below pair each entry with its known result.
- Molecule: "CN(C)C(=O)C1(C)CCN(c2ccc(Cl)cc2NC(=O)c2ccc(C3CCOCC3)o2)CC1"
  Assay target: "CYP3A4 (Homo sapiens, UniProt P08684)"
  Units text: "nM"
  Result: 2200
- Molecule: "CC1(O)CCN(c2ccc(C(F)(F)F)cc2NC(=O)c2ccccn2)CC1"
  Assay target: "CYP3A4 (Homo sapiens, UniProt P08684)"
  Units text: "nM"
  Result: 20900
- Molecule: "CC1(O)CCN(c2ccc(C(F)(F)F)cc2NC(=O)c2ccc(C3CCOCC3)o2)C1 (racemic)"
  Assay target: "CYP3A4 (Homo sapiens, UniProt P08684)"
  Units text: "nM"
  Result: 20900
- Molecule: "CC1(O)CCN(c2ccc(C3CC3)cc2NC(=O)c2ccccn2)CC1"
  Assay target: "CYP3A4 (Homo sapiens, UniProt P08684)"
  Units text: "nM"
  Result: 17100
- Molecule: "Cc1ccc(N2CCC(C)(O)CC2)c(NC(=O)c2ccc(C3CCOCC3)o2)c1"
  Assay target: "CYP3A4 (Homo sapiens, UniProt P08684)"
  Units text: "nM"
  Result: 23200
- Molecule: "CC1(N)CCN(c2ccc(C(F)(F)F)cc2NC(=O)c2ccc(-c3ccncc3)o2)CC1"
  Assay target: "CYP3A4 (Homo sapiens, UniProt P08684)"
  Units text: "nM"
  Result: 3900
- Molecule: "COc1ccc(N2CCC(C)(C(=O)N(C)C)CC2)c(NC(=O)c2ccc(C3CCOCC3)o2)c1"
  Assay target: "CYP3A4 (Homo sapiens, UniProt P08684)"
  Units text: "nM"
  Result: 20700
- Molecule: "O=C(Nc1cc(C2CC2)ccc1N1CCC(O)(CC2CC2)CC1)c1ccc(C2CCOCC2)o1"
  Assay target: "CYP3A4 (Homo sapiens, UniProt P08684)"
  Units text: "nM"
  Result: 4190

a = CC1(O)CCCN(c2ccc(Cl)cc2NC(=O)c2ccc(-c3ccncc3)o2)CC1 (racemic)
b = O=C(Nc1cc(C(F)(F)F)ccc1N1CCN(Cc2ccco2)CC1)c1ccc(-c2ccncc2)o1 [Reference Example 2, reference compound]
c = CC1(O)CCCN(c2ccc(Cl)cc2NC(=O)c2ccc(C3CCOCC3)o2)CC1 (racemic)
d = O=C(Nc1cc(C(F)(F)F)ccc1N1CCC(O)(c2ccccc2)CC1)c1ccc(C2CCOCC2)o1
*Q* Rank order required: IC50, descending. Lab note: record answer as labels in requested order.
*A* d, a, c, b
(d: 18800 nM, a: 10000 nM, c: 2610 nM, b: 1180 nM)

* * *

# Assay target: CYP2C19 (Homo sapiens, UniProt P33261)
# Construct: from tissue; host or cells: human liver microsomes
# Sequence (P33261 whole entry): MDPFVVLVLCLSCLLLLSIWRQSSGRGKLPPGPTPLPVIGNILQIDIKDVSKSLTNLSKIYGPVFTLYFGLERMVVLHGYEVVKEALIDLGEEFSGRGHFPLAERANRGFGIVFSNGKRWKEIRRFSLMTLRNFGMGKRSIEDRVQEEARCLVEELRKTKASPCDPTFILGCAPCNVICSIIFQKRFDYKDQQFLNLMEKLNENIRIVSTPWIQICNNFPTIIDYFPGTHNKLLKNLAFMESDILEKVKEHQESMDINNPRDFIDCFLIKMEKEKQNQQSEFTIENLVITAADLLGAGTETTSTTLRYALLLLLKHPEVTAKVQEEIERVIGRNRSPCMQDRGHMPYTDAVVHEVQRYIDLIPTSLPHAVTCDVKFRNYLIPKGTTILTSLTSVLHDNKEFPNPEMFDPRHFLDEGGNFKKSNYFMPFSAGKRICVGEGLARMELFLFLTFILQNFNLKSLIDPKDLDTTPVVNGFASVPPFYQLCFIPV
# Assay text: CYP inhibition assay, human liver microsomes, substrate S-mephenytoin
# Format: in vitro ADME
# Condition label: human liver microsomes, 10 min incubation, LC-MS/MS; read-out: CYP Inhibition Activity (IC50/nM) CYP2C19
Reported endpoint: IC50 (nM)

1 = O=C(Nc1cc(C(F)(F)F)ccc1N1CCC(O)(C2CC2)CC1)c1ccc(C2CCOCC2)o1
2 = C[C@]1(O)CCN(c2ccc(C(F)(F)F)cc2NC(=O)c2ccc(C3CCOCC3)o2)C1
*Q* Name the one with the greater IC50 value, either 1 or 2 as given. // caller expects the label of the chosen entry
*A* 2

* * *

# Assay target: UniProt:Q96SB4
# Sequence (Q96SB4 whole entry, species assumed): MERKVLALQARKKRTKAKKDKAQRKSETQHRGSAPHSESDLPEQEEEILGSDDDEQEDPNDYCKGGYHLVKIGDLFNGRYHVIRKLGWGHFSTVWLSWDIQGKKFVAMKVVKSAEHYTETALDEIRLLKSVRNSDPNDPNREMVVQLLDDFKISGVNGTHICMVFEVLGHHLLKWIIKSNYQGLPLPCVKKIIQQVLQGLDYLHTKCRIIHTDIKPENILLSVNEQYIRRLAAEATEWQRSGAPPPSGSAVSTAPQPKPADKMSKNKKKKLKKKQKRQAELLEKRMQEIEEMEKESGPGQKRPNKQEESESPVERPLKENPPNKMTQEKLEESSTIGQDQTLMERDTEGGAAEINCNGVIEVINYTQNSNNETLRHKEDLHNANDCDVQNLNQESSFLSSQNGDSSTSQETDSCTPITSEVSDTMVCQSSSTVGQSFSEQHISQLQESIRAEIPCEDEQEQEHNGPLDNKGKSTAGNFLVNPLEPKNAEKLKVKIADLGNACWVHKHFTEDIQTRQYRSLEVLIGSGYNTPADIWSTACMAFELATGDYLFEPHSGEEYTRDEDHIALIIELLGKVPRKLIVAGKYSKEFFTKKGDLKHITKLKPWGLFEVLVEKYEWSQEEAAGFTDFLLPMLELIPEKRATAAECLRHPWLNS
# Assay text: In vitro SRPK1 assay (Kinase-Glo)
# Assay type: biochemical
Reported endpoint: IC50 (nM)

- Compound: "Cc1ccc(N2CCC(C)(C(=O)N(C)C)CC2)c(NC(=O)c2ccc(C3CCOCC3)o2)c1 [Example 87]"
  Assay target: "UniProt:Q96SB4"
  Units text: "nM"
  IC50: 27
- Compound: "O=C(Nc1cc(C2CC2)ccc1N1CCC(O)CC1)c1ccc(C2CCOCC2)o1 [Example 61]"
  Assay target: "UniProt:Q96SB4"
  Units text: "nM"
  IC50: 1.2
- Compound: "CNCC1(C)CCN(c2ccc(C(F)(F)F)cc2NC(=O)c2ccc(-c3ccncc3)o2)CC1 [Example 79]"
  Assay target: "UniProt:Q96SB4"
  Units text: "nM"
  IC50: 263

1 = CC1(O)CCN(c2ccc(C3CC3)cc2NC(=O)c2ccc(C3CCOCC3)o2)C1 (racemic) [Example 59]
2 = O=C(Nc1cc(C(F)(F)F)ccc1N1CCC(O)CC1)c1ccc(C2CCOCC2)o1 [Example 33]
*Q* Lowest IC50? choose 1 or 2 Field: selected label. Fill in the label of the entry you choose.
*A* 2
